- Tested on: SK-MEL-3 (melanoma)
- experiment: Cell proliferation measurement (Cell Titer Glo), SK-MEL-3
- Format: cell-based
- study conditions: Homo sapiens, SK-MEL3, SK-MEL-3 cells, 72 h treatment, read-out: Anti-proliferation IC50 SK-MEL-3 (melanoma)
pIC50: −log10 of the molar value.

# molecule, value modifier, pIC50
records = [
    ("O=C1CCC(c2ccc(-c3cc(F)ccc3F)c(F)c2)=NN1 [Example 42]", "=", 8.08),
    ("O=C1CCC(c2ccc(-n3ccc(C(F)(F)F)n3)c(F)c2)=NN1 [Example 131]", "=", 7.44),
    ("COCCNc1ccc(C2=NNC(=O)CC2)cc1C(F)(F)F [Example 129]", "=", 8.34),
    ("O=C1CCC(c2ccc(C3=CCOCC3)cc2)=NN1 [Example 1]", "<", 7.00),
    ("CCc1ccccc1-c1ccc(C2=NNC(=O)CC2)cc1F [Example 81]", "=", 7.58),
    ("Cc1cc(C2=NNC(=O)CC2)ccc1-c1ccc(F)cc1 [Example 3]", "=", 8.07),
    ("Nc1ccccc1-c1ccc(C2=NNC(=O)CC2)cc1F [Example 66]", "<", 7.00),
    ("Cc1cc(C2=NNC(=O)CC2)ccc1-c1ccccc1C#N [Example 99]", "<", 7.00),
    ("O=C1CCC(c2ccc(-c3cc(F)cc(F)c3)c(F)c2)=NN1 [Example 54]", "=", 7.42),
    ("O=C1CCC(c2ccc(-c3ccoc3)c(F)c2)=NN1 [Example 45]", "=", 7.86),
    ("Cc1ncc(-c2ccc(C3=NNC(=O)CC3)cc2C)cn1 [Example 92]", "<", 7.00),
    ("Cc1cc(C2=NNC(=O)CC2)ccc1-c1cc(F)cc(F)c1 [Example 105]", "<", 7.00),
    ("Cc1cc(C2=NNC(=O)CC2)ccc1-c1cccc(C(N)=O)c1 [Example 114]", "<", 7.00),
    ("O=C1CCC(c2ccc(-c3cccc4[nH]ccc34)c(F)c2)=NN1 [Example 75]", "=", 7.36),
    ("Cc1cc(C2=NNC(=O)CC2)ccc1-c1cccnc1 [Example 2]", "=", 7.84),
    ("CCNc1ccc(C2=NNC(=O)CC2)cc1C(F)(F)F [Example 18]", "=", 7.98),
    ("CCc1ccccc1-c1ccc(C2=NNC(=O)CC2)cc1C [Example 117]", "<", 7.00),
    ("Cc1ccc(-c2ccc(C3=NNC(=O)CC3)cc2F)c(C)c1 [Example 56]", "=", 8.14),
    ("COc1ncccc1-c1ccc(C2=NNC(=O)CC2)cc1F [Example 70]", "=", 7.40),
    ("O=C1CCC(c2cc(F)c(N3CCC(F)(F)CC3)c(F)c2)=NN1 [Example 12]", "=", 7.94),
    ("O=C1CCC(c2cc(F)c(N3CCC(F)(F)C3)c(F)c2)=NN1 [Example 13]", "=", 7.86),
    ("O=C1CCC(c2ccc(-c3ccccc3OC(F)(F)F)c(F)c2)=NN1 [Example 44]", "=", 7.46),
    ("O=C1CCC(c2ccc(-c3ccc(F)c(F)c3F)c(F)c2)=NN1 [Example 39]", "=", 8.08),
    ("O=C1CCC(c2ccc(-c3cccc(F)c3F)c(F)c2)=NN1 [Example 53]", "=", 8.17),
    ("Cc1cc(C2=NNC(=O)CC2)ccc1-c1cccc(N)c1 [Example 103]", "<", 7.00),
    ("O=C1CCC(c2cc(Cl)c(N3CCOCC3)c(Cl)c2)=NN1 [Example 124]", "=", 7.77),
    ("C/C=C(\\C)c1ccc(C2=NNC(=O)CC2)cc1F [Example 36]", "=", 7.84),
    ("Nc1ccc(-c2ccc(C3=NNC(=O)CC3)cc2F)cc1 [Example 76]", "=", 8.06),
    ("Cc1cc(C2=NNC(=O)CC2)ccc1-c1ccc(Cl)c(N)c1 [Example 108]", "=", 7.75),
    ("O=C1CCC(c2ccc(-c3ccccc3O)c(F)c2)=NN1 [Example 50]", "=", 8.39),
    ("Cc1cc(-c2ccc(C3=NNC(=O)CC3)cc2C)ccc1F [Example 119]", "<", 7.00),
    ("N#Cc1cc(C2=NNC(=O)CC2)ccc1N1CCOCC1 [Example 15]", "=", 7.16),
    ("COc1ccc(-c2ccc(C3=NNC(=O)CC3)cc2F)cc1 [Example 86]", "=", 7.22),
    ("Cc1cc(C2=NNC(=O)CC2)ccc1-c1ccc(F)cc1F [Example 106]", "=", 7.67),
    ("O=C1CCC(c2cc(F)c(N3CC4CC4C3)c(F)c2)=NN1 (stereo not shown) [Example 14]", "=", 8.23),
    ("Cc1ccc(C)c(-c2ccc(C3=NNC(=O)CC3)cc2F)c1 [Example 88]", "<", 7.00),
    ("O=C1CCC(c2ccc(-c3ccc(F)cc3F)c(F)c2)=NN1 [Example 55]", "=", 8.47),
    ("COc1ccc(-c2ccc(C3=NNC(=O)CC3)cc2F)cn1 [Example 82]", "=", 7.63),
    ("Cc1ccccc1-c1ccc(C2=NNC(=O)CC2)cc1C [Example 116]", "=", 7.37),
    ("COc1cccc(-c2ccc(C3=NNC(=O)CC3)cc2F)c1 [Example 64]", "=", 7.64),
]
